Source listed as ChEMBL document CHEMBL1147862.

Test system: Escherichia coli
Assay: Antibacterial activity against Escherichia coli at 30 ug/ml by agar plate diffusion technique
Format: functional
Settings: read-out: IZ
readout_name: zone of inhibition at 30 µg/mL (mm)
Numeric only. Scale: mm

COc1ccc(Cc2nnc3n2NC(c2ccc[nH]2)S3)cc1OC (stereo unspecified): 14.2
Cc1occc1-c1nnc2sc(-c3ccnc4ccccc34)nn12: 19.4
COc1ccc(Cc2nnc3sc(Cc4c[nH]c5ccccc45)nn23)cc1OC: 12.5
COc1ccc(Cc2nnc3sc(-c4cc(C)nc5ccccc45)nn23)cc1OC: 16
COc1ccc(Cl)c(-c2nnc(S)n2N)c1: 9.17

Please provide the recorded zone of inhibition at 30 µg/mL for Cc1occc1-c1nnc2sc(-c3ccnc(Cl)c3)nn12 , tested on Escherichia coli.
20.2

# iterate: Cc1occc1-c1nnc2sc(-c3ccnc(F)c3)nn12
20.8

Same thing, different compound: Cc1occc1-c1nnc2sc(Cc3c[nH]c4ccccc34)nn12
13.6

Same for COc1ccc2[nH]c(C)c(Cc3nn4c(-c5ccoc5C)nnc4s3)c2c1
13.8

Please answer likewise for COc1ccc(Cc2nnc3sc(-c4cc(O)nc(O)c4)nn23)cc1OC
13.3

Same question for COc1ccc(Cl)c(-c2nnc3n2NC(c2ccco2)S3)c1 (stereo unspecified) please.
14.4

====

System: Staphylococcus aureus
Assay: Antibacterial activity against Staphylococcus aureus at 20 ug/ml by agar plate diffusion technique
Format: functional
Settings: read-out: IZ
Note that class boundaries on zone of inhibition at 20 µg/mL are bin 1: < 8 mm; bin 2: ≥ 8 mm and < 10 mm; bin 3: ≥ 10 mm

The examples below pair each entry with its known result.
COc1ccc(Cc2nnc3n2NC(c2ccco2)S3)cc1OC (configuration not stated): bin 1
COc1ccc(Cc2nnc3sc(-c4ccnc(F)c4)nn23)cc1OC: bin 3
COc1ccc(Cl)c(-c2nnc3n2NC(c2ccco2)S3)c1 (configuration not stated): bin 2
COc1ccc(Cl)c(-c2nnc3sc(-c4ccnc(F)c4)nn23)c1: bin 3

Assign a category based on measured zone of inhibition at 20 µg/mL for COc1ccc(Cc2nnc3sc(-c4cc(O)nc(O)c4)nn23)cc1OC and give only the class name.
bin 2

Further, for COc1ccc(Cl)c(-c2nnc3sc(-c4ccnc(Cl)c4)nn23)c1 ?
bin 3

And what about the compound COc1ccc(Cl)c(-c2nnc(S)n2N)c1 ?
bin 1

Can you check COc1ccc(Cc2nnc3n2NC(c2ccc[nH]2)S3)cc1OC (configuration not stated) next?
bin 1

And what about the compound Cc1occc1-c1nnc2n1NC(c1ccc([N+](=O)[O-])o1)S2 (configuration not stated) ?
bin 3

Also need COc1ccc(Cl)c(-c2nnc3n2NC(c2ccc[nH]2)S3)c1 (configuration not stated) , thanks.
bin 1

Quick one: COc1ccc(Cl)c(-c2nnc3sc(-c4cc(C)nc5ccccc45)nn23)c1
bin 3

====

Tested on: Candida albicans
Assay: Antifungal activity against Candida albicans at 20 ug/ml by paper disc method
Type: functional
Conditions: read-out: IZ
Each entry below carries its reported zone of inhibition at 20 µg/mL.
The figure you give is taken to be in mm; do not add the unit.

Take a look at these entries with their results.
COc1ccc(Cc2nnc3sc(-c4ccnc5ccccc45)nn23)cc1OC: 13.7
COc1ccc(Cc2nnc3n2NC(c2ccc([N+](=O)[O-])o2)S3)cc1OC (stereo unspecified): 10.9

Record Cc1occc1-c1nnc2sc(-c3cc(O)nc(O)c3)nn12 : what is its zone of inhibition at 20 µg/mL with Candida albicans?
10
